Origin of measurements: patent US20230349919A1

Biological target: T1, Ole e 1 (olive, UniProt P19963 1-145)
T1 construct: Also used oligonucleotide-barcoded for cell staining; also called olive allergen; negative control allergen
T1 sequence (looked up): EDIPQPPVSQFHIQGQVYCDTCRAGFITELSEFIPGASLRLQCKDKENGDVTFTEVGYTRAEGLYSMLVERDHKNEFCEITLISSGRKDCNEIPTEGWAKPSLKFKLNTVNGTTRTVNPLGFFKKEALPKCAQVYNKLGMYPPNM
Experiment: barcoded-antigen count on source cell
Recorded Metric: Olee1_ab_raw (counts)
Reply with just the number (in counts).

[[record]]
binder = "IgE mAb 1_2 (antibody, V domains shown, IgE (IGHE, IGKC) from HDM-exposed mouse, BoneMarrow) VH: QIQLVQSGPELKKPGETVKISCKASGYTFTTYGMSWVKQAPGKGLKWMGWINTYSGVPTYADDFKGRFVFSLETSASTAYLQINNLKNEDTATYFCARAYYYGSSYLIWYFDVWGTGTTVTVSS VL: NIVLTQSPASLAVSLGQRATISCRASESVDSYGNSFMHWYQQKPGQPPKLLIYLASNLESGVPARFSGSGSRTDFTLTIDPVEADDAATYYCQQNNEDPYTFGGGTKLEIK"
recorded_metric = "Olee1_ab_raw"
units_text = "counts"
recorded_number = 0

[[record]]
binder = "IgE mAb 13_2 (antibody, V domains shown, IgE (IGHE, IGKC) from HDM-exposed mouse, LymphNode) VH: EVQLQQSGPELVKPGASVKISCKASGYTFTDYYMNWVKQSHGKSLEWIGDINPNNGGTSYNQKFKGKATLTVDKSSSTAYMELRSLTSEDSAVYYCAYGPPRGPPWFAYWGQGTLVTVSA VL: DIVLTQSPASLAVSLGQRATISCRASKSVSTSGYSYMHWYQQKPGQPPKLLIYLASNLESGVPARFSGSGSGTDFTLNIHPVEEEDAATYYCQHSRELPWTFGGGTKLEIK"
recorded_metric = "Olee1_ab_raw"
units_text = "counts"
recorded_number = 1

[[record]]
binder = "IgE mAb 8_2 (antibody, V domains shown, IgE (IGHE, IGKC) from HDM-exposed mouse, BoneMarrow) VH: QVLLKESGPGLVAPSQSLSITCTVSGFSLTSYGVSWVRQPPGKGLEWLGVIWGDGNTDYHSALISRLSIRKDNSKSQVFLKLNSLQTDDTATYYCAIGSPFAYWGQGTLVTVSA VL: DVLMTQTPLSLPVSLGDQVSISCRSSQNIVHSTGNTYLEWYLQKPGQSPKLLIFKVSNRLSGVPDRFSGSGSGTDFTLNISRVEAADLGIYSCFQGSHVPFTFGSGTKLEIK"
recorded_metric = "Olee1_ab_raw"
units_text = "counts"
recorded_number = 0


Item under review: IgE mAb 21_2 (antibody, V domains shown, IgE (IGHE, IGKC) from HDM-exposed mouse, LymphNode) VH: QVQLQQSGPELVKPGASVKISCKAPGNAFSYSWMNWVKQRPGKGLEWVGRIYPGDGDTNYNGKFMGKATLTADKSSNTAYIQLSSLTSEDSAVYFCARSGGGTLYWYFDVWGTGTTVTVSS VL: DIVMTQSPSSLALSVGQKVTMNCRSSQSLLNSFNQKNYLAWFQQKPGQSPRLLIYFASTRESGVPDRFIGSGSGTDFTLTISSVQAEDLADYFCQQHYNTPLTFGAGTTLELK . Reported Olee1_ab_raw?
4
